# TEST TARGET: myosin A-MTIP complex
# EXPERIMENTAL DETAILS: Competitive ITC, pre-bound myosin A-MTIP complex into ZA1
# Format: binding, Plasmodium falciparum
# STUDY CONDITIONS: 25 °C, pre-bound myosin A-MTIP complex (150 µM each) in syringe, 10 µM ZA1 in cell
READOUT: pKd
API: returns pKd as number; meaning -log10 of concentration in mol/L.

Ask: Using the record for SGRHVFKQLDIDIDIMHELDIELELDIDIDIMHPGDIDIDIDIDIQLDIELDIMHDIDIDIMHMHQLELELDIFKHVAAA [ZA1] , report its pKd.
Result: 4.24

src = paper PMC7503848
